System: RPMI-8226 leukemia
ASSAY REMARKS: NCI tumour cell line growth inhibition, 48 h
Quick list: TGI per entry.

{"COMPOUND": "COC(=O)C1=C(c2ccc3c(c2)OCO3)O[C@H](c2cc(OC)c(OC)c(OC)c2)[C@H]1COC(C)=O", "REPORTED METRIC": "TGI", "REPORTED RESULT": "> 100 µM"}
{"COMPOUND": "NS(=O)(=O)c1nn2c(Br)c(-c3ccccc3)nc2s1", "REPORTED METRIC": "TGI", "REPORTED RESULT": "15.5 µM"}
{"COMPOUND": "CN(c1ccc(Cl)cc1)S(=O)(=O)c1ccc([N+](=O)[O-])cc1", "REPORTED METRIC": "TGI", "REPORTED RESULT": "> 100 µM"}
{"COMPOUND": "CC1CC=CC(O)C1 (centres undefined)", "REPORTED METRIC": "TGI", "REPORTED RESULT": "> 100 µM"}
{"COMPOUND": "N#CSC#Cc1ccc(C#CSC#N)cc1", "REPORTED METRIC": "TGI", "REPORTED RESULT": "> 100 µM"}

// next item, TGI requested
Request: Query for RPMI-8226 leukemia: what TGI does the record show for O=C(O)c1n[nH]nc1Cl ?
Result: > 100 µM

----------
Test system: 786-0 renal
ASSAY REMARKS: NCI tumour cell line growth inhibition, 48 h
REPORTED METRIC: TGI (µM)
Value expressed in µM; do not type the unit.

{"STRUCTURE SMILES": "Nc1nc(Cl)c(N)c(NC23CC4CC(CC(C4)C2)C3)n1", "TGI, µM": 3.03}

// next item, TGI requested
Request: Fill in the blank: the reported TGI of CN(C)Cc1cc(C(=O)/C=C/c2ccc(Cl)cc2)cc(CN(C)C)c1O is ____.
Result: 20.2

----------
Test system: DU-145 prostate
ASSAY REMARKS: NCI tumour cell line growth inhibition, 48 h
REPORTED METRIC: TGI

Solved entries (count: 3):
{"COMPOUND": "CCCCc1c(OC)cc(O)c2c1C(=O)c1[nH]c(C(=O)O)c(O)c(=O)c1C2=O", "TARGET DESC": "DU-145 prostate", "REPORTED RESULT": "> 100 µM"}
{"COMPOUND": "CC(=O)OCCn1cnc2nc(Nc3ccccc3)nc(Cl)c21", "TARGET DESC": "DU-145 prostate", "REPORTED RESULT": "> 100 µM"}
{"COMPOUND": "Nc1nc(N)c2[nH]c(CNc3ccc(C(=O)O)cc3)nc2n1", "TARGET DESC": "DU-145 prostate", "REPORTED RESULT": "> 100 µM"}

Request: Fill in the blank: the reported TGI of c1ccc2sc(C3(N4CCCC4)CCCCCC3)cc2c1 is ____.
Result: > 100 µM

Request: Then this compound: CC1OC2CC(=O)OC2C2=C1C(=O)c1c(O)cccc1C2=O (stereo not given)
Result: 0.284 µM

Request: Then this compound: CCOC(=O)C1(Cc2ccc3c(c2)CCC3)Cc2cc3c(cc2C1)CCC3
Result: > 100 µM

Request: Then this compound: CC1(CCCO)CCCCCC(C)(CCCO)C1=O (stereo not given)
Result: > 100 µM

Request: Then this compound: Cc1nc(N)sc1-c1ccnc(Nc2ccc(N3CCOCC3)cc2)n1
Result: > 100 µM

Request: Then this compound: C=CCNC1=C2C[C@@H](C)C[C@@H](OC)[C@H](OC(=O)CCCCN)[C@H](C)/C=C(\C)[C@@H](OC(N)=O)[C@H](OC)/C=C\C=C(/C)C(=O)NC(=CC1=O)C2=O
Result: 18.5 µM

Request: Then this compound: O=[N+]([O-])c1ccc(Cl)c(C=NC23CC4CC(CC(C4)C2)C3)c1
Result: > 10 µM

All values here come from PubChem BioAssay (NCI).
